Test system: CCRF-CEM
Test: NCI tumour cell line growth inhibition, 48 h
Calls of active or inactive are those of the source. Cut-off read from the data, not from the text of the source: active = GI50 up to about 1.1 µM and inactive = higher.
Outcome codes: Yes (active), No (inactive)

[[record]]
molecule = "O=C1CCCC1C(O)(C(F)(F)F)C(F)(F)F (stereo not drawn)"
category_label = "No"

[[record]]
molecule = "OC(c1cc2ccccc2o1)c1cc2ccccc2s1 (stereo not drawn)"
category_label = "No"

[[record]]
molecule = "Cc1cc(C)c(C2=NO[C@@H]3C(=O)N(c4ccc(Cc5ccc(N6C(=O)[C@H]7C(c8c(C)cc(C)cc8C)=NO[C@H]7C6=O)cc5)cc4)C(=O)[C@H]23)c(C)c1"
category_label = "No"

[[record]]
molecule = "O=[N+]([O-])c1cc2oc(COc3ccccc3)nc2cc1Cl"
category_label = "No"

[[record]]
molecule = "Cc1nnc2sc(-c3ccc(N)cc3)nn12"
category_label = "No"

[[record]]
molecule = "COc1cc(O)c2c(c1)C(=O)c1cc(C)cc(O)c1C2=O"
category_label = "No"

[[record]]
molecule = "CC1(C)C(=O)C(C)(C)C1=S"
category_label = "No"

[[record]]
molecule = "Cc1csc2nc(-c3ccncc3)cn12"
category_label = "No"

[[record]]
molecule = "CSc1c(C#N)c(N)nc2c(/N=N\\c3ccc(Br)cc3)c(N)nn12"
category_label = "No"

[[record]]
molecule = "COc1ccc(-c2cc(=O)c3ccccc3[nH]2)c(OC)c1"
category_label = "No"

[[record]]
molecule = "CCNc1cnc2c(n1)c(=O)n(C)c(=O)n2C"
category_label = "No"

[[record]]
molecule = "COc1ccc2c(c1)nc1n2C(c2c(F)cccc2F)SC1 (stereo not drawn)"
category_label = "No"

[[record]]
molecule = "CCCCCCC(=O)c1ccc2ccccc2c1O"
category_label = "No"

[[record]]
molecule = "CN(N=O)C(=O)Nc1ccc(C(=O)O)cc1"
category_label = "No"

[[record]]
molecule = "CN/N=C(\\C(=O)Nc1ccc(C(F)(F)F)cc1[N+](=O)[O-])C(c1cnc2ccc([N+](=O)[O-])cc2n1)[N+](=O)[O-] (stereo not drawn)"
category_label = "No"

[[record]]
molecule = "CCOP(=O)(OCC)C1C(=O)O[C@H]2CCCC[C@@H]12 (stereo partly drawn)"
category_label = "No"

[[record]]
molecule = "O=C(CC(O)(C(F)(F)F)C(F)(F)F)c1cccs1"
category_label = "No"

[[record]]
molecule = "CN(CCCNC(=O)c1nn(-c2ccccc2)c2c1Cc1ccccc1-2)CCCNC(=O)c1nn(-c2ccccc2)c2c1Cc1ccccc1-2"
category_label = "Yes"

[[record]]
molecule = "Cc1ccc2ccccc2c1CSc1nc(N)nc2c1ncn2CC(C)C"
category_label = "No"

[[record]]
molecule = "O=C1O/C(=C(\\Br)c2cccc3ccccc23)c2ccccc21"
category_label = "No"

[[record]]
molecule = "CCOC(=O)CNC1=Nc2ccccc2C(=O)N2CSCC12 (stereo not drawn)"
category_label = "No"

[[record]]
molecule = "CC(=O)C1=C(C)N2C(=NC3=C(CCc4ccccc43)C2c2ccc(Cl)cc2)S1 (stereo not drawn)"
category_label = "No"

[[record]]
molecule = "CCOc1nc(N)nc(C)c1/N=N/c1ccc(Cl)cc1"
category_label = "No"

[[record]]
molecule = "COC(=O)C1CCc2nnc(-c3ccccc3)n21 (stereo not drawn)"
category_label = "No"

[[record]]
molecule = "Cc1ccc2c(=O)cc(-c3ccc(-c4ccccc4)s3)[nH]c2n1"
category_label = "No"

[[record]]
molecule = "Cc1cccc(NC(=O)c2cc3cc(/N=N/c4ccccc4Cl)ccc3oc2=O)c1"
category_label = "No"

[[record]]
molecule = "CCOP(=O)(C/C(O)=C1\\C(=O)C(CCCNC(=O)OC(C)(C)C)N(Cc2ccc(OC)c(OC)c2)C1=O)OCC (stereo not drawn)"
category_label = "No"

[[record]]
molecule = "Cc1nc2ccc(Cl)cc2c2c1CCO2"
category_label = "No"

